- target_of_assay: USP1/UAF1 enzyme (Homo sapiens, UniProt O94782)
- Sequence (O94782 whole entry): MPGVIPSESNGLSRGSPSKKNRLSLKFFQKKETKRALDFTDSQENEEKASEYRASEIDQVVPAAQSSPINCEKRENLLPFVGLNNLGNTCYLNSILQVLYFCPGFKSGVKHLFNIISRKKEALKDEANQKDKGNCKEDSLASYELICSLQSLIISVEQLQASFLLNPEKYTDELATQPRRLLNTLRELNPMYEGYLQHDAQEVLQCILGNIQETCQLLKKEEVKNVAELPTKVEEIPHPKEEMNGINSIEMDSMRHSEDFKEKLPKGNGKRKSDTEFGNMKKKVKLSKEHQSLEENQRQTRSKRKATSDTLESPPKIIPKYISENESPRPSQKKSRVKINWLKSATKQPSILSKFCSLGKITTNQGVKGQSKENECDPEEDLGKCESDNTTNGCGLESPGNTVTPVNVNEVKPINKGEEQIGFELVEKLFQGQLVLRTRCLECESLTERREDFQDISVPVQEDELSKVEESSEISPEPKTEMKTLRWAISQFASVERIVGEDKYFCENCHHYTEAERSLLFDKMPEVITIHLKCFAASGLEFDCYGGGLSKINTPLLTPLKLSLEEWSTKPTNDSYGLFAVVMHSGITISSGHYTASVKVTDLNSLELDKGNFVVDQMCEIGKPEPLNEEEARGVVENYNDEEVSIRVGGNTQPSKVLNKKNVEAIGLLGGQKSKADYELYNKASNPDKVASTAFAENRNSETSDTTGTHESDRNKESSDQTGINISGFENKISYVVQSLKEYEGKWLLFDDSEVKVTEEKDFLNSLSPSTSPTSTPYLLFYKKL
- Sequence (Q8TAF3 whole entry partner): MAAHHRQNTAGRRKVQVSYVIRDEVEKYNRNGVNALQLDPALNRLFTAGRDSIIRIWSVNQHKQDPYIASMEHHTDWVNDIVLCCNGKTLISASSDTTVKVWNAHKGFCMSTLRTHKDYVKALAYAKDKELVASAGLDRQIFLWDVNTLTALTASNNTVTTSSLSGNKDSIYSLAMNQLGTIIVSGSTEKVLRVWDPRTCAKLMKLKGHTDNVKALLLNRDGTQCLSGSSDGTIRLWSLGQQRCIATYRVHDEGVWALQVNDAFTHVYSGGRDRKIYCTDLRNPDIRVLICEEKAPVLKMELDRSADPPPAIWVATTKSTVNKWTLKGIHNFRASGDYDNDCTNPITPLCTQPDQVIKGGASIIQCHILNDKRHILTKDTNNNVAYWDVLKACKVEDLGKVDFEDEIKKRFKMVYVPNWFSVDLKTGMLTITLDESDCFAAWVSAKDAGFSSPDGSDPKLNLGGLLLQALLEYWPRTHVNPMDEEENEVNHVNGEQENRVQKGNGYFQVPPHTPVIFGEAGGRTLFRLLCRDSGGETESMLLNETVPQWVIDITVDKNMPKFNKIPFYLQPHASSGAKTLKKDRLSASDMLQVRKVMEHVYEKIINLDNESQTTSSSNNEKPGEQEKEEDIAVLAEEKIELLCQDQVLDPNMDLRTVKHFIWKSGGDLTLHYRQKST
- assay_procedure: USP1/UAF1 deubiquitination assay (ubiquitin-rhodamine 110 substrate)
- test_settings: read-out: USP1 IC50 (Ub-Rho)
Form field: IC50 (one value per entry).
readout_kind: IC50

>>> reported_value("CCn1cc(C(F)(F)F)nc1-c1c(Cl)cc(CN2C(=O)CCn3nc(-c4c(OC)ncnc4C4CC4)cc32)cc1OC [Example 145]")
"< 100 nM"
>>> reported_value("CCn1cc(C(F)(F)F)nc1-c1c(F)cc(CN2C(=O)CCn3nc(-c4c(OC)ncnc4C4CC4)nc32)cc1OC [Example 176]")
"< 100 nM"
>>> reported_value("COc1cc(C(F)(F)F)nn1-c1ccc(CN2C(=O)CCn3nc(-c4c(Cl)cnn4C(C)C)cc32)cn1 [Example 89]")
"< 100 nM"
>>> reported_value("CCn1cc(C(F)(F)F)nc1-c1ccc(CN2C(=O)CCn3nc(-c4c(Cl)cnn4C(C)C)nc32)cc1F [Example 42]")
"< 100 nM"
>>> reported_value("CCn1cc(C(F)(F)F)nc1-c1ccc(CN2C(=O)CCn3nc(-c4c(F)cnn4C(C)C)cc32)cc1 [Example 85]")
"100 to 500 nM"
>>> reported_value("CCn1cc(C(F)(F)F)nc1-c1ccc(N[C@@H]2CCCn3nc(-c4c(Cl)cnn4[C@@H](C)CF)cc32)cc1 (single isomer, unassigned) [Example 324]")
"< 100 nM"
>>> reported_value("CCn1cc(C(F)(F)F)nc1-c1ccc(CN2c3cc(-c4c(OC)ncnc4C4CC4)nn3CCC2C)cc1F (centres unmarked) [Example 49]")
"< 100 nM"
>>> reported_value("CCn1cc(C(F)(F)F)nc1-c1ccc(CN2C(=O)CCn3nc(-c4c(OC)ncnc4C4CC4)nc32)cc1Cl [Example 175]")
"< 100 nM"
>>> reported_value("CC(C)n1ncc(F)c1-c1cc2n(n1)CCC(=O)N2Cc1ccc(-c2nc(C(F)(F)F)cn2C)c(F)c1 [Example 21]")
"100 to 500 nM"
>>> reported_value("COc1ncnc(C2CC2)c1-c1cc2n(n1)CCCC2Nc1ccc(-c2nc(C(F)(F)F)cn2C(C)CF)cc1 (centres unmarked) [Example 248]")
"< 100 nM"
>>> reported_value("CCn1cc(C(F)(F)F)nc1-c1ccc([C@@H](C)N2C(=O)CCn3nc(-c4c(Cl)cnn4C(C)C)nc32)cc1OC [Example 180]")
"< 100 nM"
>>> reported_value("CC(C)n1cc(C(F)(F)F)nc1-c1ccc(CN2CCCn3nc(-c4c(Cl)cnn4C(C)C)cc32)cc1F [Example 59]")
"< 100 nM"
>>> reported_value("CCn1cc(C(F)(F)F)nc1-c1ccc(C(C)N2C(=O)CCn3nc(-c4c(Cl)cnn4C(C)C)cc32)cc1 (centres unmarked) [Example 113]")
"< 100 nM"
>>> reported_value("CCn1cc(C(F)(F)F)nc1-c1ccc(NC2CCCn3nc(-c4c(Cl)cnn4C(C)C)nc32)cc1 (centres unmarked) [Example 256]")
"100 to 500 nM"

---

Form field: half-life at 1 μM (one value per entry).
- assay_procedure: Liver microsomal metabolic stability, rat liver microsomes (RLM)
- test_settings: rat, liver microsomes, t1/2 (min) in RLM, 1 μM compound, 1 mg/mL microsomes, NADPH
readout_kind: half-life at 1 μM

>>> reported_value("CCn1cc(C(F)(F)F)nc1-c1ccc([C@H](C)n2c(=O)ccn3nc(-c4c(OC)ncnc4C4CC4)nc23)cc1F [Example 342]")
"> 25 min"
>>> reported_value("CCn1cc(C(F)(F)F)nc1-c1ccc(CN2C(=O)C(C)Cn3nc(-c4c(OC(F)F)ncnc4C4CC4)nc32)cc1F (stereo not shown) [Example 351]")
"> 25 min"
>>> reported_value("COc1cc(CN2C(=O)CCn3nc(-c4c(OC)ncnc4C(C)C)nc32)ccc1-c1nc(C(F)(F)F)cn1C(C)C [Example 46]")
"> 25 min"
>>> reported_value("CC(C)Oc1cccnc1-c1ccc(CN2C(=O)CCn3nc(-c4c(Cl)cnn4C(C)C)cc32)cc1Cl [Example 310]")
"< 25 min"

---

- assay_procedure: Liver microsomal metabolic stability, rat liver microsomes (RLM)
- test_settings: rat, liver microsomes, t1/2 (min) in RLM, 1 μM compound, 1 mg/mL microsomes, NADPH
Form field: half-life at 1 μM (one value per entry).
readout_kind: half-life at 1 μM

>>> reported_value("Cc1cnn(C(C)C)c1-c1cc2n(n1)CCCN2Cc1ccc(-c2nc(C(F)(F)F)cn2C(C)C)cc1 [Example 54]")
"< 25 min"
>>> reported_value("CCn1cc(C(F)(F)F)nc1-c1ccc(COC2CCCn3nc(-c4c(Cl)cnn4C(C)C)cc32)cc1 (stereo not shown) [Example 270]")
"< 25 min"
>>> reported_value("CCn1cc(C(F)(F)F)nc1-c1ccc(CN2C(=O)CCn3nc(-c4c(OC(F)F)ncnc4C4CC4)nc32)cc1 [Example 364]")
"> 25 min"
>>> reported_value("CC(C)n1ncc(Cl)c1-c1cc2n(n1)CCCN2Cc1ccc(-c2nc(C(F)(F)F)cn2CCF)cc1 [Example 62]")
"< 25 min"
>>> reported_value("COc1ncnc(C2CC2)c1-c1cc2n(n1)CCC(=O)N2Cc1ccc(-c2nc(C(F)(F)F)cn2C(C)C)c(F)c1 [Example 18]")
"> 25 min"
>>> reported_value("Cc1cnn(C(C)C)c1-c1nc2n(n1)CCC(=O)N2Cc1ccc(-c2nc(C(F)(F)F)cn2C)cc1 [Example 37]")
"< 25 min"
>>> reported_value("COc1cc([C@H](C)N2C(=O)CCn3nc(-c4c(OC)ncnc4C4CC4)cc32)ccc1-c1nc(C(F)(F)F)cn1C(C)C [Example 128]")
"< 25 min"

---

- target_of_assay: USP1/UAF1 enzyme (Homo sapiens, UniProt O94782)
- assay_procedure: USP1/UAF1 deubiquitination assay (ubiquitin-rhodamine 110 substrate)
- test_settings: read-out: USP1 IC50 (Ub-Rho)
readout_kind: IC50

>>> reported_value("CC(C)n1ncc(Cl)c1-c1cc2n(n1)CCC(=O)N2Cc1ccc(OCc2ccccn2)cc1 [Example 226]")
"100 to 500 nM"
>>> reported_value("COc1ncnc(C2CC2)c1-c1nc2n(n1)CCC(=O)N2[C@H](C)c1ccc(-c2nc(C(F)(F)F)cn2C(C)C)c(F)c1 [Example 174]")
"< 100 nM"
>>> reported_value("COc1ncnc(C2CC2)c1-c1nc2n(Cc3ccc(-c4nc(C(F)(F)F)cn4C(C)C)c(F)c3OC)c(=O)ccn2n1 [Example 346]")
"< 100 nM"
>>> reported_value("COc1nccc(C2CC2)c1-c1nc2n(n1)CCC(=O)N2Cc1ccc(-c2nc(C(F)(F)F)cn2C(C)C)c(F)c1 [Example 213]")
"< 100 nM"
>>> reported_value("COc1cc(CN2C(=O)CCn3nc(-c4c(Cl)cnn4C(C)C)cc32)ccc1-c1nc(C(F)(F)F)cn1C(C)C [Example 109]")
"< 100 nM"
>>> reported_value("[2H]C([2H])([2H])C([2H])([2H])n1cc(C(F)(F)F)nc1-c1ccc(NC2CCCn3nc(-c4c(OC)ncnc4C4CC4)cc32)cc1 (centres unmarked) [Example 389]")
"< 100 nM"
>>> reported_value("COc1cccnc1-c1ccc(N[C@@H]2CCCn3nc(-c4c(OC)ncnc4C4CC4)cc32)cc1Cl (single isomer, unassigned) [Example 253]")
"100 to 500 nM"
>>> reported_value("Cc1nn(C)c(C)c1-c1ccc(CN2C(=O)CCn3nc(-c4c(Cl)cnn4C(C)C)cc32)cc1Cl [Example 289]")
"> 500 nM"
>>> reported_value("COCCOc1cc(CN2C(=O)CCn3nc(-c4c(Cl)cnn4C(C)C)nc32)ccc1-c1nc(C(F)(F)F)cn1C(C)C [Example 167]")
"100 to 500 nM"
>>> reported_value("CCn1cc(C#N)nc1-c1ccc([C@H](C)N2C(=O)CCn3nc(-c4c(OC)ncnc4C4CC4)nc32)cc1 [Example 198]")
"> 500 nM"
>>> reported_value("CCn1cc(C(F)(F)F)nc1-c1ccc(CN2C(=O)CCn3nc(-c4c(OC)cnn4C(C)C)nc32)cc1 [Example 45]")
"> 500 nM"
>>> reported_value("CC(C)n1ncc(Cl)c1-c1nc2n(n1)CCC(=O)N2Cc1ccc(-c2nc(C(F)(F)F)cn2C)cc1 [Example 39]")
"< 100 nM"
>>> reported_value("CCn1cc(C(F)(F)F)nc1-c1ccc(CN2C(=O)CCn3nc(-c4c(OC)ncnc4OC(F)F)nc32)cc1 [Example 376]")
"< 100 nM"
>>> reported_value("CC(C)n1ncc(Cl)c1-c1cc2n(n1)CCC(=O)N2Cc1ccc(-n2ccc(N3CCOCC3)n2)cc1 [Example 230]")
"> 500 nM"
